B1: CPEB3 Ribozyme (parent)
chain: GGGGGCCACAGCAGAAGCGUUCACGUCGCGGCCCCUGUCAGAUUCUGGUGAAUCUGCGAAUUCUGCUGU

Variants of: B1
Assay: self-cleavage, relative activity (ratio to wild type); higher = more cleavage; co-transcriptional
Classify as follows. Reported self-cleavage greater than or equal to 0.5: yes (1). Reported self-cleavage below: no (0).

mutant_id	label_class
G19C C24U	no (0)
C18U C57U	no (0)
A42C G65U	yes (1)
G2C G30C	no (0)
G5U U67A	yes (1)
U44A U46G	yes (1)
C7U U55C	yes (1)
U20G U64G	no (0)
A16U U67C	yes (1)
G2C G5U	no (0)
G11A C45A	yes (1)
G2U A52G	no (0)
G14U U49A	yes (1)
G37A G48A	no (0)
G2U U26C	no (0)
C9A G58U	yes (1)
C6U G17U	no (0)
G14A U26G	no (0)
A16G C22U	no (0)
C54A A59G	yes (1)
G30U G41C	no (0)
U46A U67A	yes (1)
A13C	yes (1)
C6A G19U	no (0)
G30U G31U	no (0)
U26C C32A	yes (1)
A8G C32U	yes (1)
G3U C63G	no (0)
A15C C32U	yes (1)
G3A U53A	no (0)
G48C A51C	yes (1)
C29G U67G	no (0)
G2U C66A	no (0)
G5C A13U	no (0)
U20G C34A	no (0)
C32G U69G	yes (1)
A23C A60U	yes (1)
U21C A51G	yes (1)
C22U C39U	no (0)
